# Method notes: Clinical plasma PK, study RMC-5552-001
# Assay type: in vivo, human
# Protocol conditions: 3 mg, C2D1 (EOI)
Value kind: Cmax (nM)
Give your result in nM as a bare value.

Task item: Could you share which Cmax value was measured for `CO[C@H]1C[C@@H]2CC[C@@H](C)[C@@](O)(O2)C(=O)C(=O)N2CCCC[C@H]2C(=O)O[C@H]([C@H](C)C[C@@H]2CC[C@@H](OC(=O)NCCOCCOCCOCCOCCOCCOCCOCCOCCC(=O)N3CCc4cc(Cn5nc(-c6ccc7oc(N)nc7c6)c6c(N)ncnc65)ccc4C3)[C@H](OC)C2)C[C@@H](O)[C@H](C)/C=C(\C)[C@@H](O)[C@@H](OC)C(=O)[C@H](C)C[C@H](C)/C=C/C=C/C=C/1C` ?
Reply: 74.2

====

# Method notes: Clinical plasma PK, study RMC-5552-001
# Type: in vivo, human
# Protocol conditions: 6 mg, C2D1 (EOI)
Value kind: Cmax (nM)
Give your result in nM as a bare value.

Task item: Could you share which Cmax value was measured for `CO[C@H]1C[C@@H]2CC[C@@H](C)[C@@](O)(O2)C(=O)C(=O)N2CCCC[C@H]2C(=O)O[C@H]([C@H](C)C[C@@H]2CC[C@@H](OC(=O)NCCOCCOCCOCCOCCOCCOCCOCCOCCC(=O)N3CCc4cc(Cn5nc(-c6ccc7oc(N)nc7c6)c6c(N)ncnc65)ccc4C3)[C@H](OC)C2)C[C@@H](O)[C@H](C)/C=C(\C)[C@@H](O)[C@@H](OC)C(=O)[C@H](C)C[C@H](C)/C=C/C=C/C=C/1C` ?
Reply: 159

====

# Method notes: Clinical plasma PK, study RMC-5552-001
# Assay type: in vivo, human
# Protocol conditions: 6 mg, C3D1 (EOI)
Value kind: Cmax (nM)
Give your result in nM as a bare value.

Task item: Could you share which Cmax value was measured for `CO[C@H]1C[C@@H]2CC[C@@H](C)[C@@](O)(O2)C(=O)C(=O)N2CCCC[C@H]2C(=O)O[C@H]([C@H](C)C[C@@H]2CC[C@@H](OC(=O)NCCOCCOCCOCCOCCOCCOCCOCCOCCC(=O)N3CCc4cc(Cn5nc(-c6ccc7oc(N)nc7c6)c6c(N)ncnc65)ccc4C3)[C@H](OC)C2)C[C@@H](O)[C@H](C)/C=C(\C)[C@@H](O)[C@@H](OC)C(=O)[C@H](C)C[C@H](C)/C=C/C=C/C=C/1C` ?
Reply: 187

====

# Method notes: Clinical plasma PK, study RMC-5552-001
# Type: in vivo, human
# Protocol conditions: 3 mg, C1D15
Value kind: Cmax
Include the unit after the number when you answer.

Task item: Could you share which Cmax value was measured for `CO[C@H]1C[C@@H]2CC[C@@H](C)[C@@](O)(O2)C(=O)C(=O)N2CCCC[C@H]2C(=O)O[C@H]([C@H](C)C[C@@H]2CC[C@@H](OC(=O)NCCOCCOCCOCCOCCOCCOCCOCCOCCC(=O)N3CCc4cc(Cn5nc(-c6ccc7oc(N)nc7c6)c6c(N)ncnc65)ccc4C3)[C@H](OC)C2)C[C@@H](O)[C@H](C)/C=C(\C)[C@@H](O)[C@@H](OC)C(=O)[C@H](C)C[C@H](C)/C=C/C=C/C=C/1C` ?
Reply: 67.5 nM

====

# Method notes: Clinical plasma PK, study RMC-5552-001
# Format: in vivo, human
# Protocol conditions: 10 mg 2-h inf, C1D15
Value kind: Cmax (nM)
Give your result in nM as a bare value.

Task item: Could you share which Cmax value was measured for CO[C@H]1C[C@@H]2CC[C@@H](C)[C@@](O)(O2)C(=O)C(=O)N2CCCC[C@H]2C(=O)O[C@H]([C@H](C)C[C@@H]2CC[C@@H](OC(=O)NCCOCCOCCOCCOCCOCCOCCOCCOCCC(=O)N3CCc4cc(Cn5nc(-c6ccc7oc(N)nc7c6)c6c(N)ncnc65)ccc4C3)[C@H](OC)C2)C[C@@H](O)[C@H](C)/C=C(\C)[C@@H](O)[C@@H](OC)C(=O)[C@H](C)C[C@H](C)/C=C/C=C/C=C/1C [RMC-5552] ?
Reply: 181

====

# Method notes: Clinical plasma PK, study RMC-5552-001
# Format: in vivo, human
# Protocol conditions: 8 mg, C2D1 (EOI)
Value kind: Cmax (nM)
Give your result in nM as a bare value.

Task item: Could you share which Cmax value was measured for `CO[C@H]1C[C@@H]2CC[C@@H](C)[C@@](O)(O2)C(=O)C(=O)N2CCCC[C@H]2C(=O)O[C@H]([C@H](C)C[C@@H]2CC[C@@H](OC(=O)NCCOCCOCCOCCOCCOCCOCCOCCOCCC(=O)N3CCc4cc(Cn5nc(-c6ccc7oc(N)nc7c6)c6c(N)ncnc65)ccc4C3)[C@H](OC)C2)C[C@@H](O)[C@H](C)/C=C(\C)[C@@H](O)[C@@H](OC)C(=O)[C@H](C)C[C@H](C)/C=C/C=C/C=C/1C` ?
Reply: 282

====

# Method notes: Clinical plasma PK, study RMC-5552-001
# Type: in vivo, human
# Protocol conditions: 8 mg 1-h IV inf, C1D1
# From the text: The plasma PK of RMC-5552 in subjects was characterized after single- and repeat-dose administration via IV infusion. […] AUC0-last value was not calculated on C1D8, C2D1, C3D1, or […] due to limited PK time points (pre-dose and EOI).
Value kind: Cmax (nM)
Give your result in nM as a bare value.

Task item: Could you share which Cmax value was measured for `CO[C@H]1C[C@@H]2CC[C@@H](C)[C@@](O)(O2)C(=O)C(=O)N2CCCC[C@H]2C(=O)O[C@H]([C@H](C)C[C@@H]2CC[C@@H](OC(=O)NCCOCCOCCOCCOCCOCCOCCOCCOCCC(=O)N3CCc4cc(Cn5nc(-c6ccc7oc(N)nc7c6)c6c(N)ncnc65)ccc4C3)[C@H](OC)C2)C[C@@H](O)[C@H](C)/C=C(\C)[C@@H](O)[C@@H](OC)C(=O)[C@H](C)C[C@H](C)/C=C/C=C/C=C/1C` ?
Reply: 152

====

# Method notes: Clinical plasma PK, study RMC-5552-001
# Assay type: in vivo, human
# Protocol conditions: 6 mg, C1D15
Value kind: Cmax (nM)
Give your result in nM as a bare value.

Task item: Could you share which Cmax value was measured for `CO[C@H]1C[C@@H]2CC[C@@H](C)[C@@](O)(O2)C(=O)C(=O)N2CCCC[C@H]2C(=O)O[C@H]([C@H](C)C[C@@H]2CC[C@@H](OC(=O)NCCOCCOCCOCCOCCOCCOCCOCCOCCC(=O)N3CCc4cc(Cn5nc(-c6ccc7oc(N)nc7c6)c6c(N)ncnc65)ccc4C3)[C@H](OC)C2)C[C@@H](O)[C@H](C)/C=C(\C)[C@@H](O)[C@@H](OC)C(=O)[C@H](C)C[C@H](C)/C=C/C=C/C=C/1C` ?
Reply: 155

====

# Method notes: Clinical plasma PK, study RMC-5552-001
# Type: in vivo, human
# Protocol conditions: 10 mg 2-h IV inf, C1D1
Value kind: Cmax
Include the unit after the number when you answer.

Task item: Could you share which Cmax value was measured for `CO[C@H]1C[C@@H]2CC[C@@H](C)[C@@](O)(O2)C(=O)C(=O)N2CCCC[C@H]2C(=O)O[C@H]([C@H](C)C[C@@H]2CC[C@@H](OC(=O)NCCOCCOCCOCCOCCOCCOCCOCCOCCC(=O)N3CCc4cc(Cn5nc(-c6ccc7oc(N)nc7c6)c6c(N)ncnc65)ccc4C3)[C@H](OC)C2)C[C@@H](O)[C@H](C)/C=C(\C)[C@@H](O)[C@@H](OC)C(=O)[C@H](C)C[C@H](C)/C=C/C=C/C=C/1C` ?
Reply: 115 nM

====

# Method notes: Clinical plasma PK, study RMC-5552-001
# Type: in vivo, human
# Protocol conditions: 1.6 mg, C2D1 (EOI)
Value kind: Cmax (nM)
Give your result in nM as a bare value.

Task item: Could you share which Cmax value was measured for CO[C@H]1C[C@@H]2CC[C@@H](C)[C@@](O)(O2)C(=O)C(=O)N2CCCC[C@H]2C(=O)O[C@H]([C@H](C)C[C@@H]2CC[C@@H](OC(=O)NCCOCCOCCOCCOCCOCCOCCOCCOCCC(=O)N3CCc4cc(Cn5nc(-c6ccc7oc(N)nc7c6)c6c(N)ncnc65)ccc4C3)[C@H](OC)C2)C[C@@H](O)[C@H](C)/C=C(\C)[C@@H](O)[C@@H](OC)C(=O)[C@H](C)C[C@H](C)/C=C/C=C/C=C/1C [RMC-5552] ?
Reply: 24.7

====

# Method notes: Clinical plasma PK, study RMC-5552-001
# Type: in vivo, human
# Protocol conditions: 10 mg 2-h inf, C2D1
Value kind: Cmax (nM)
Give your result in nM as a bare value.

Task item: Could you share which Cmax value was measured for CO[C@H]1C[C@@H]2CC[C@@H](C)[C@@](O)(O2)C(=O)C(=O)N2CCCC[C@H]2C(=O)O[C@H]([C@H](C)C[C@@H]2CC[C@@H](OC(=O)NCCOCCOCCOCCOCCOCCOCCOCCOCCC(=O)N3CCc4cc(Cn5nc(-c6ccc7oc(N)nc7c6)c6c(N)ncnc65)ccc4C3)[C@H](OC)C2)C[C@@H](O)[C@H](C)/C=C(\C)[C@@H](O)[C@@H](OC)C(=O)[C@H](C)C[C@H](C)/C=C/C=C/C=C/1C [RMC-5552] ?
Reply: 290
